Data origin: paper PMC9090415

Biological target: bacteriophage T4 DNA polymerase (Enterobacteria phage T4, UniProt P04415)
Construct: made in house
Sequence (P04415 1-898): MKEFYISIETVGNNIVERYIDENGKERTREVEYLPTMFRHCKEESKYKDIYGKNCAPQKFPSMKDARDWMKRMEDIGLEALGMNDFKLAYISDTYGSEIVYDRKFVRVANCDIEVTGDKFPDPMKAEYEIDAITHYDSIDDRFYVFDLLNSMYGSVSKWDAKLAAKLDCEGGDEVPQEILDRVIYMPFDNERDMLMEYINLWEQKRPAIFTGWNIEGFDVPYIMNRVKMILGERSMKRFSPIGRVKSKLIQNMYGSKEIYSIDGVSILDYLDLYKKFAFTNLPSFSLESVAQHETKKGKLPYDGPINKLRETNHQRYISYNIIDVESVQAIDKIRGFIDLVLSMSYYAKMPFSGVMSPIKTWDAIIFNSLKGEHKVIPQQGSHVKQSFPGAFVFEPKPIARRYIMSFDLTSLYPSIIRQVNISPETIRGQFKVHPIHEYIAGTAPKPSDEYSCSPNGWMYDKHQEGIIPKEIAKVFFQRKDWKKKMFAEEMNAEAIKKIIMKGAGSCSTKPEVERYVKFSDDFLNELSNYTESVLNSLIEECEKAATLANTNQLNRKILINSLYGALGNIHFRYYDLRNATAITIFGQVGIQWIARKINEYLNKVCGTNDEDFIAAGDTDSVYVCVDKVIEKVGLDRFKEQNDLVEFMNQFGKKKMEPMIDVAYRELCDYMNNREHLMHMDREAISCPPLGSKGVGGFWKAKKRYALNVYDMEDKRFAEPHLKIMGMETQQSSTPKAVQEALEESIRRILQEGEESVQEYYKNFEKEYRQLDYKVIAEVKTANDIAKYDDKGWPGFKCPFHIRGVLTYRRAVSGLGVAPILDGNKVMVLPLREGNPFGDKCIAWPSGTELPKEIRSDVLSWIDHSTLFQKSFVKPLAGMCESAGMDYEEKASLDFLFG
Assay: Counter-screen against bacteriophage T4 DNA polymerase
Type: biochemical
Conditions: DRC-1; read at 130'; concentration 2.5
readout.label: % inhibition T4 130' 2.5 (%)
All answers are understood in %, so give the number only.

Known results for compounds:
- compound: "Nc1cc(Oc2ccc(O)c(N)c2)ccc1O"
  unit.symbol: "%"
  % inhibition T4 130' 2.5: 10.8947
- compound: "COc1ccc(/C=C/c2cc(C(=O)O)c3ccccc3n2)cc1"
  unit.symbol: "%"
  % inhibition T4 130' 2.5: -10.2066
- compound: "Cn1nc(-c2nnc(-c3ccccc3F)o2)c2c1CCN(C(=O)c1ccccc1Cl)C2"
  unit.symbol: "%"
  % inhibition T4 130' 2.5: -4
- compound: "Cc1ccsc1Cn1c(C)ccc1C"
  unit.symbol: "%"
  % inhibition T4 130' 2.5: -4.899
- compound: "Cn1nc(-c2nc(-c3ccccc3)no2)c2c1CCN(C(=O)Cc1cccs1)C2"
  unit.symbol: "%"
  % inhibition T4 130' 2.5: -2.41

*Q* Can you share its % inhibition T4 130' 2.5? I mean this compound: "CC(=O)Nc1cc(C(=O)c2cccs2)nn(-c2ccc(Cl)cc2)c1=O"
*A* -1.3658

*Q* Can you share its % inhibition T4 130' 2.5? I mean this compound: "CC(=O)OCC1=C(C(=O)[O-])N2C(=O)[C@@H](NC(=O)Cc3cccs3)[C@H]2SC1.[Na+]"
*A* 4.91

*Q* Can you share its % inhibition T4 130' 2.5? I mean this compound: CC(C)CC(C(=O)O)N1C(=O)C2C3C=CC(C2C1=O)C1C(=O)N(C(CC(C)C)C(=O)O)C(=O)C31 (centres unmarked)
*A* -2.364
